Just for reference, patent US8906904B2 is where these values come from.

- assay procedure: Assessment of solubility (McIlvaine buffers, 24 h shake, UPLC-UV)
- Assay type: physicochemical
- test settings: pH 2.2, aqueous buffer, kinetic from dmso stock
measured metric: solubility at 24 h (µg/mL)

COc1c(C(=O)O)cnn1-c1cccc(-c2cccc(C)c2OCc2ccc3c(c2C)CCN(C[C@@H]2COCCO2)CC3)n1 [Compound 204] : 82
CCOc1c(C(=O)O)cnn1-c1cccc(-c2cccc(C)c2OCc2ccc3c(c2)CCN([C@@H]2CCOC2)C3)n1 [Compound 112] : 110
COc1c(C(=O)O)cnn1-c1cccc(-c2cccc(C)c2OCc2ccc3c(c2)OCCN(C2CCOCC2)C3)n1 [Compound 130] : 130
COc1c(C(=O)O)cnn1-c1cccc(-c2cccc(C)c2OCc2ccc3c(c2)CCCN(C2CCOCC2)C3)n1 [Compound 100] : 110
COCCOc1c(C(=O)O)cnn1-c1cccc(-c2cccc(C)c2OCc2ccc3c(c2C)CCN(C2CCCOC2)C3)n1 (centres unmarked) [Compound 149] : 110
CCCOc1c(C(=O)O)cnn1-c1cccc(-c2cccc(C)c2OCc2ccc3c(c2C)CCN(C2CCOCC2)C3)n1 [Compound 133] : 120
COc1c(C(=O)O)cnn1-c1cccc(-c2cc(F)cc(F)c2OCc2ccc3c(c2)CCN(C2COC2)C3)n1 [Compound 52] : 83
COc1c(C(=O)O)cnn1-c1cccc(-c2cccc(C)c2OCc2ccc3c(c2C)CCN(C[C@@H]2COCCO2)C3)n1 [Compound 139] : 130
COc1c(C(=O)O)cnn1-c1cccc(-c2cccc(C)c2OCc2ccc3c(c2C)CCN([C@@H]2CCOC2)CC3)n1 [Compound 207] : 82
COc1c(C(=O)O)cnn1-c1cccc(-c2cccc(C)c2OCc2cc(C)c3c(c2C)CCN(C2CCOCC2)C3)n1 [Compound 120] : 110
CCOc1c(C(=O)O)cnn1-c1cccc(-c2cccc(C)c2OCc2ccc3c(c2C)CCN([C@H]2CCCOC2)C3)n1 [Compound 129] : 95
COc1c(C(=O)O)cnn1-c1cccc(-c2cccc(C)c2OCc2ccc3c(c2C)CCN(C[C@H]2COCCO2)C3)n1 [Compound 142] : 120
COc1c(C(=O)O)cnn1-c1cccc(-c2cc(C)ccc2OCc2ccc3c(c2C)CCN(C2CCOCC2)C3)n1 [Compound 124] : 100
COc1c(C(=O)O)cnn1-c1cccc(-c2cccc(C)c2OCc2cc(C)c3c(c2)CCN(CC2COCCO2)C3)n1 (centres unmarked) [Compound 240] : 92
